Literature-derived IC50 for Tyrosine-protein kinase receptor UFO (Homo sapiens) follows.

Consider the following illustrative entries.
COC[C@H](C)Nc1ncc2c(-c3cnn(C[C@H]4CC(=O)N(C)C4)c3)cc([C@H]3CC[C@H](O)CC3)n2n1    ≤ 100 nM
CN1CCC(n2cc(-c3cnc(N)c(-c4ncc(-c5ccc(Cl)cc5)o4)c3)cn2)CC1    < 500 nM
COC[C@H](C)Nc1ncc2c(-c3ccnc(NC4CCOCC4)c3)cc([C@H]3CC[C@H](O)CC3)n2n1    ≤ 100 nM

Your task in this section: give IC50 for each listed record.
1. COC[C@H](C)Nc1ncc2c(O[C@H]3CCN(C)C3)ncc([C@H]3CC[C@H](O)CC3)c2n1
2. COc1cc2nccc(Oc3ccc(NC(=O)c4ccc(C)n(-c5ccncc5F)c4=O)cc3F)c2nc1OC

Response given:
["1000 to 10000 nM", "≤ 100 nM"]

// for each compound below, give its IC50
1. COc1cc2ncnc(Oc3ccc(NC(=O)c4cn5c6c(cc(C)cc6c4=O)CCC5)cc3F)c2cc1OC
2. COc1cc2nccc(Oc3ccc(NC(=O)c4ccc(C)n(-c5ccc(F)cn5)c4=O)cc3F)c2nc1OC

Response given:
1: 26.5 nM; 2: ≤ 100 nM

Batch lookup, IC50 per entry.
1. COC[C@H](C)Nc1ncc2c(-c3cnn([C@H]4CCOC4)c3)cc([C@H]3CC[C@H](O)CC3)n2n1
2. CN1CCN(c2ccc(Nc3ncc4c(n3)N3c5ccccc5CC3C(=O)N4C)cc2)CC1 (centres unmarked)

Response given:
1. ≤ 100 nM
2. 250 to 1000 nM

Quick one: give me IC50 for each item below, same order please.
1. COC[C@H](C)Nc1ncc2c(O[C@H]3C[C@@H](O)C3)ncc([C@H]3CC[C@@](C)(O)CC3)c2n1
2. COc1cc2nccc(Oc3ncc(NC(=O)c4nn(C5CC5)cc(-c5ccc(F)cc5)c4=O)cn3)c2cc1OC
3. COC[C@H](C)Nc1ncc2c(-c3cnn(CC(C)(C)O)c3)cc([C@H]3CC[C@H](O)CC3)n2n1
4. COCC[C@H](C)Nc1ncc2c(OC3CCOCC3)ncc([C@H]3CC[C@H](O)CC3)c2n1
5. CNc1ncc2c(n1)N1CCN=C1C(c1c(C)ccc(NS(=O)(=O)c3ccccc3C(F)(F)F)c1F)=C2
6. COc1cc2nccc(Oc3ccc(NC(=O)c4cn(CC5CCOCC5)cc(-c5ccc(C)cc5)c4=O)nn3)c2cc1OC
7. COC[C@H](C)Nc1ncc2c(-c3cnn(C[C@@H]4CC(=O)N(C)C4)c3)cc([C@H]3CC[C@H](O)CC3)n2n1
8. CNc1ncc2c(n1)N1CCN=C1C(c1c(C)ccc(NS(=O)(=O)c3c(F)cccc3F)c1F)=C2

Response given:
1. 100 to 1000 nM
2. 2 nM
3. ≤ 100 nM
4. 1000 to 10000 nM
5. > 10000 nM
6. 9 nM
7. ≤ 100 nM
8. > 10000 nM
